- system-tested: Short transient receptor potential channel 5 (Mus musculus)
- Sequence (whole entry): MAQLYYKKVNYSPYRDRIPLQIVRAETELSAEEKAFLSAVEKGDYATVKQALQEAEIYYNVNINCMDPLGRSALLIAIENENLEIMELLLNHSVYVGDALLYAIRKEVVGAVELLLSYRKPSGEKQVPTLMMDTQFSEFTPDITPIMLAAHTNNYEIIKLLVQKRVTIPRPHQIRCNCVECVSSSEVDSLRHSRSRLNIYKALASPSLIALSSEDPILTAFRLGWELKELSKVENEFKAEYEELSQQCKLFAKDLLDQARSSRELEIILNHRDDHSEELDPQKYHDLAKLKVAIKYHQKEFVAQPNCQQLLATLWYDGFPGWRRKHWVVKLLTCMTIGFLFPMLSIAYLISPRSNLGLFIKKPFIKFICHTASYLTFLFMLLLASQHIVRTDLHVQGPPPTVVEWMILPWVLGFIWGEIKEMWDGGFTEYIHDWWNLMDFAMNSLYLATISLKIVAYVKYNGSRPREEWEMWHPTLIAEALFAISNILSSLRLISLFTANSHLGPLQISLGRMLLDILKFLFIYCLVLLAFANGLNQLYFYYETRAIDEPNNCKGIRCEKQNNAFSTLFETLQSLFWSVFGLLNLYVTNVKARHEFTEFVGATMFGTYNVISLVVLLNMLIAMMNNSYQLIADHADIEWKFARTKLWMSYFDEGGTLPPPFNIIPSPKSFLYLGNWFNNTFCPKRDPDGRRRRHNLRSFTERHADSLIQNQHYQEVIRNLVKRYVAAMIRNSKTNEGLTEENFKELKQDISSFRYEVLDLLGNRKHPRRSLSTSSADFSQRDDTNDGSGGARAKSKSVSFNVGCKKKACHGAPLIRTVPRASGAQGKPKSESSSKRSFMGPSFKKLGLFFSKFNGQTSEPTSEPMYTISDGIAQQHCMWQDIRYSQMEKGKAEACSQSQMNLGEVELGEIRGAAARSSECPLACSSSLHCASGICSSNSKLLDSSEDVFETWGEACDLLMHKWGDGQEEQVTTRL
- procedure-details: Inhibition of mouse TRPC5 expressed in Flp-In-T-Rex-HEK293 cells assessed as reduction in […]-induced channel current at 3 uM by automated patch clamp method relative to control
- Assay type: cell-based
I would appreciate it if you labelled entries yes (1) when inhibition is 70% or higher, otherwise no (0).

Has c1coc(CNc2nc3ccccc3n2CC2CCCCC2)c1 a recorded inhibition greater than or equal to 70%?
no (0)

Has c1ccc(Cn2c(NCc3cc4ccccc4o3)nc3ccccc32)cc1 a recorded inhibition greater than or equal to 70%?
no (0)

Has c1ccc(Cn2c(NCc3cccs3)nc3ccccc32)cc1 a recorded inhibition greater than or equal to 70%?
yes (1)

Has CC(Nc1nc2ccccc2n1Cc1ccccc1)c1nccs1 (stereo unspecified) a recorded inhibition greater than or equal to 70%?
no (0)

Has Clc1cc2nc(NCc3ccco3)n(Cc3ccccc3)c2cc1Cl a recorded inhibition greater than or equal to 70%?
no (0)
